The following compounds were reported with IC50 values on Vascular endothelial growth factor receptor 1 (Homo sapiens) in different studies.

As a guide, the following entries are already answered.
- CCCS(=O)(=O)Nc1ccc(F)c(C(=O)c2c[nH]c3ncc(-c4cccc(C(=O)O)c4)cc23)c1F: ≤ 10 µM
- CN(C)c1cccc(Nc2ccc3cc[nH]c3n2)c1: ≤ 10 µM
- Clc1ccc(COc2ccc(Cc3c[nH]c4ncccc34)cc2)cc1: ≤ 10 µM
- COc1ccc(Nc2ncnc(Nc3cc(OC)c(OC)c(OC)c3)n2)cc1O: < 1 µM

Query block: Reported IC50 for Vascular endothelial growth factor receptor 1 (Homo sapiens), given `COc1cc(Nc2ncnc(-n3c(NC(C)=O)nc4ccccc43)n2)cc(OC)c1OC` ?
Result block: 0.919 to 5.51 µM

Query block: Reported IC50 for Vascular endothelial growth factor receptor 1 (Homo sapiens), given `Cc1ccc(F)c(NC(=O)Nc2ccc(Oc3ccnc(-c4cc(C(=O)NCCCN5CCCC5)c[nH]4)c3)cc2F)c1` ?
Result block: 0.009 µM

====

The following compounds were reported with IC50 values on UniProt:P17948 in different studies.

As a guide, the following entries are already answered.
• COc1cc(Nc2ncnc(Nc3ccc(Cl)c4ccccc34)n2)cc(OC)c1OC = > 10300 nM
• COCCOc1ccc(F)c(C(=O)c2c[nH]c3ncc(-c4cccc(NS(C)(=O)=O)c4)cc23)c1F = ≤ 10000 nM
• COc1cc(Nc2ncnc(-n3c(N[C@@H](C)c4ccccc4)nc4ccccc43)n2)cc(OC)c1OC = < 804 nM
• Cc1ccc(F)c(NC(=O)Nc2ccc(Oc3ccnc4cc(C(=O)O)sc34)cc2)c1 = 16 nM
• CCNC(=O)CC[C@H](NC(=O)c1c[nH]c(-c2cc(Oc3cc(C(=O)Nc4cc(C)ccc4F)ccc3F)ccn2)c1)C(=O)NCC (stereo in doubt) = 62 nM
• Cc1[nH]c(/C=C2\C(=O)Nc3ccc(F)cc32)c(C)c1C(=O)N1CCOCCOCCOCC1 = 40 nM
• CS(=O)(=O)Nc1cccc(-c2cnc3[nH]cc(C(=O)c4cc(Cl)cc(Cl)c4)c3c2)c1 = ≤ 10000 nM
• COc1cc(Nc2ncnc(Nc3ccc(C)c(O)c3)n2)cc(OC)c1OC = < 1040 nM
• Cc1ccc(F)c(NC(=O)Nc2ccc(Oc3ccnc(-c4csc(C(=O)NCCC(=O)O)c4)c3)cc2)c1 = 15 nM
• CCN1CCC(Nc2ccc3c(c2)/C(=C(\c2ccc(OC)cc2)c2ncc[nH]2)C(=O)N3)CC1 = 50 to 500 nM

Query block: So what does the record say about IC50 for CCC(C)NC(=O)Nc1ccc(F)c(C(=O)c2c[nH]c3ncc(-c4cccnc4)cc23)c1F (stereo not shown) ?
Result block: ≤ 10000 nM

Query block: So what does the record say about IC50 for `COc1cc(Nc2ncnc(Nc3ccccc3F)n2)cc(OC)c1OC` ?
Result block: 1080 to 6460 nM

Query block: So what does the record say about IC50 for `O=C(c1cccc(Cl)c1Cl)c1c[nH]c2ncc(-c3cccnc3)cc12` ?
Result block: ≤ 10000 nM

====

The following compounds were reported with IC50 values on Vascular endothelial growth factor receptor 1 (Homo sapiens, UniProt P17948) in different studies.

As a guide, the following entries are already answered.
* COc1cc(Nc2ncnc(Nc3nc4ccccc4n3C)n2)cc(OC)c1OC | 982 to 5890 nM
* O=C(c1c[nH]c2ncc(-c3ccc(Cl)cc3)cc12)c1cccc2c1ccn2C(=O)NCc1ccccc1 | ≤ 10000 nM

Next item in the queue.
Query block: Reported IC50 for Vascular endothelial growth factor receptor 1 (Homo sapiens, UniProt P17948), given Cc1ccc(F)c(NC(=O)Nc2ccc(Oc3ccnc4cc(C(=O)NCCCN5CCCC(CO)C5)sc34)cc2)c1 (stereo not drawn) ?
Result block: 3 nM

====

pIC50: −log10 of the molar value.
The following compounds were reported with pIC50 values on Vascular endothelial growth factor receptor 1 (Homo sapiens, UniProt P17948) in different studies.

As a guide, the following entries are already answered.
- COc1cccc(C(=O)c2c[nH]c3ncc(-c4cccc(/C=C/C(=O)O)c4)cc23)c1: ≥ 5.00
- COc1ccc2[nH]c(/C(=C3\C(=O)Nc4ccc(NC5CC(C)(C)NC(C)(C)C5)cc43)c3ccccc3)nc2c1: 5.30 to 6.30
- CCOc1ccc(Nc2ncnc(Nc3ccc(OCc4ccccc4)cc3)n2)cc1OCC: < 5.01
- c1cc(-c2ccsc2)c2cc[nH]c2n1: ≥ 5.00
- CS(=O)(=O)Nc1ccc(F)c(C(=O)c2c[nH]c3ncc(-c4cccc(C(N)=O)c4)cc23)c1F: ≥ 5.00

Query block: Reported pIC50 for Vascular endothelial growth factor receptor 1 (Homo sapiens, UniProt P17948), given `CCOc1ccc(Nc2cnc3[nH]ccc3c2)cc1` ?
Result block: ≥ 5.00

Query block: Reported pIC50 for Vascular endothelial growth factor receptor 1 (Homo sapiens, UniProt P17948), given `COC(=O)CCCOC(=O)c1c[nH]c(-c2cc(Oc3ccc(NC(=O)Nc4cc(C)ccc4F)cc3)ccn2)c1` ?
Result block: 7.77

Query block: Reported pIC50 for Vascular endothelial growth factor receptor 1 (Homo sapiens, UniProt P17948), given `N#Cc1cnc2[nH]cc(Cc3cc(F)c(OCc4nc5ccccc5[nH]4)cc3F)c2c1` ?
Result block: ≥ 5.00

Query block: Reported pIC50 for Vascular endothelial growth factor receptor 1 (Homo sapiens, UniProt P17948), given `COc1cccc(Cc2c[nH]c3ncc(-c4cccnc4)cc23)c1F` ?
Result block: ≥ 5.00

====

The following compounds were reported with IC50 values on Vascular endothelial growth factor receptor 1 (Homo sapiens) in different studies.

- O=C(c1cccc(O)c1)c1c[nH]c2ncc(Br)cc12: ≤ 10000 nM
- COc1cc2nccc(Oc3c(F)cc(NC(=O)NC4CC4)c(Cl)c3F)c2cc1C(=O)NC[C@@H](O)CO: < 5 nM
- COc1cc(Nc2ncnc(-n3c(NCc4cccnc4)nc4ccccc43)n2)cc(OC)c1OC: 826 to 4950 nM

Next item in the queue.
Query block: Reported IC50 for Vascular endothelial growth factor receptor 1 (Homo sapiens), given `COc1cc(Nc2ncnc(-n3c(NCC(C)C)nc4ccccc43)n2)cc(OC)c1OC` ?
Result block: < 890 nM

====

The following compounds were reported with IC50 values on Vascular endothelial growth factor receptor 1 (Homo sapiens) in different studies.

Query block: So what does the record say about IC50 for CS(=O)(=O)c1cccc(-c2cnc3[nH]cc(C(O)c4c(F)ccc(F)c4F)c3c2)c1 (centres unmarked) ?
Result block: ≤ 10 µM

Query block: So what does the record say about IC50 for `COc1cnc2[nH]cc(Cc3c(F)ccc(NS(=O)(=O)c4cccc(C(F)(F)F)c4)c3F)c2c1` ?
Result block: ≤ 10 µM

Query block: So what does the record say about IC50 for `O=C(c1c(F)ccc(NS(=O)(=O)c2cccc(OC(F)F)c2)c1F)c1c[nH]c2ncc(Cl)cc12` ?
Result block: ≤ 10 µM

Query block: So what does the record say about IC50 for `COc1cnc2[nH]cc(C(=O)c3c(F)ccc(NS(=O)(=O)c4cccc(F)c4)c3F)c2c1` ?
Result block: ≤ 10 µM

Query block: So what does the record say about IC50 for `COCCOc1ccc(Nc2ncnc(Nc3ccc(C)c(O)c3)n2)cc1OCCOC` ?
Result block: < 0.906 µM

Query block: So what does the record say about IC50 for COc1cc(Nc2ncnc(-n3c(NC(CCO)c4ccccc4)nc4ccccc43)n2)cc(OC)c1OC (centres unmarked) ?
Result block: < 0.758 µM

Query block: So what does the record say about IC50 for `COC(=O)CN(CCNC(=O)c1c[nH]c(-c2cc(Oc3cc(C(=O)Nc4cc(C)ccc4F)ccc3F)ccn2)c1)CC(=O)OC` ?
Result block: 0.05 µM

Query block: So what does the record say about IC50 for `COc1ccc(CNc2ccc(Cc3c[nH]c4ncccc34)cn2)cc1` ?
Result block: ≤ 10 µM

====

The following molecules were reported with pIC50 values on Vascular endothelial growth factor receptor 1 (Homo sapiens) in different studies.
pIC50: −log10 of the molar value.

As a guide, the following entries are already answered.
* COc1cc(Nc2ncnc(-n3ncc4ccccc43)n2)cc(OC)c1OC | 5.20 to 5.98
* O=C1OCc2ccc(Nc3ncnc(Nc4cc(-c5ccco5)n[nH]4)n3)cc21 | 5.19 to 5.97
* CCCS(=O)(=O)Nc1ccc(F)c(C(=O)c2c[nH]c3ncc(-c4cccc(C(N)=O)c4)cc23)c1F | ≥ 5.00
* O=C(c1cccc(O)c1F)c1c[nH]c2ncc(-c3cccnc3)cc12 | ≥ 5.00
* CCN(CC)CCOc1ccc(Nc2ncnc(Nc3cc(OC)c(OC)c(OC)c3)n2)cc1OC | < 5.04

Query block: Reported pIC50 for Vascular endothelial growth factor receptor 1 (Homo sapiens), given `CC(C)NC(=O)[C@H]1CC[C@@H](n2/c(=N/C(=O)c3ccc(F)cc3)[nH]c3ccc(CN4CCC(C(C)(C)O)CC4)cc32)CC1` ?
Result block: < 6.00

Query block: Reported pIC50 for Vascular endothelial growth factor receptor 1 (Homo sapiens), given `O=C(c1c[nH]c2ncc(-c3cccnc3)cc12)c1cccc2c1ccn2COCc1ccccc1` ?
Result block: ≥ 5.00

Query block: Reported pIC50 for Vascular endothelial growth factor receptor 1 (Homo sapiens), given `O=C(c1cccc(O)c1)c1c[nH]c2nccc(Cl)c12` ?
Result block: ≥ 5.00

Query block: Reported pIC50 for Vascular endothelial growth factor receptor 1 (Homo sapiens), given `NS(=O)(=O)c1cccc2c1C(=O)c1cccc(O)c1C2=O` ?
Result block: < 4.00

Query block: Reported pIC50 for Vascular endothelial growth factor receptor 1 (Homo sapiens), given `NC(=O)c1cccc(-c2cnc3[nH]cc(C(=O)c4cccc(N)c4)c3c2)c1` ?
Result block: ≥ 5.00

Query block: Reported pIC50 for Vascular endothelial growth factor receptor 1 (Homo sapiens), given `COc1cc(Nc2ncnc(Nc3ccc4ccccc4c3)n2)cc(OC)c1OC` ?
Result block: 4.95 to 5.06

Query block: Reported pIC50 for Vascular endothelial growth factor receptor 1 (Homo sapiens), given `COc1ccnc2[nH]cc(Cc3ccc(NCc4ccc(C(F)(F)F)cc4)nc3)c12` ?
Result block: ≥ 5.00

Query block: Reported pIC50 for Vascular endothelial growth factor receptor 1 (Homo sapiens), given `Cc1c(O)cccc1C(=O)c1c[nH]c2ncc(-c3cccs3)cc12` ?
Result block: ≥ 5.00

Query block: Reported pIC50 for Vascular endothelial growth factor receptor 1 (Homo sapiens), given `COc1cc(Nc2ncnc(Nc3cc(OC)c(OC)c(OC)c3)n2)cc(OC)c1` ?
Result block: < 4.96
